Tested on: SAGPY Arrowhead (Pygmaea)
Experiment: Preemergence weed control, flooded paddy (Table III)
Type: in vivo, Sagittaria pygmaea
Conditions: 0.1250 kg/ha
readout label: herbicidal effect rating
When you answer, write just the number.

Recorded result, COC(=O)C(C)Oc1ccc(C)cc1-c1nsc2ccc(-n3c(=O)cc(C(F)(F)F)n(C)c3=O)cc12 (stereo not drawn) , herbicidal effect rating: 6.0

Recorded result, COC(=O)C(C)Oc1cc(C)c(C)cc1-c1nsc2ccc(-n3c(=O)cc(C(F)(F)F)n(C)c3=O)cc12 (stereo not drawn) , herbicidal effect rating: 6.0

Recorded result, Cn1c(C(F)(F)F)cc(=O)n(-c2ccc3snc(-c4ccccc4)c3c2)c1=O , herbicidal effect rating: 6.0
